target: human Y4 receptor (Homo sapiens); construct: expressed in transfected cells; experiment: NPY4 cAMP HTRF Agonist Assay (inhibitory cAMP assay, Gi activation by Y4 agonism); type: cell-based; conditions: human Y4 receptor, cAMP; read-out: hY4 CAMP EC50
Sequence (P50391 whole entry): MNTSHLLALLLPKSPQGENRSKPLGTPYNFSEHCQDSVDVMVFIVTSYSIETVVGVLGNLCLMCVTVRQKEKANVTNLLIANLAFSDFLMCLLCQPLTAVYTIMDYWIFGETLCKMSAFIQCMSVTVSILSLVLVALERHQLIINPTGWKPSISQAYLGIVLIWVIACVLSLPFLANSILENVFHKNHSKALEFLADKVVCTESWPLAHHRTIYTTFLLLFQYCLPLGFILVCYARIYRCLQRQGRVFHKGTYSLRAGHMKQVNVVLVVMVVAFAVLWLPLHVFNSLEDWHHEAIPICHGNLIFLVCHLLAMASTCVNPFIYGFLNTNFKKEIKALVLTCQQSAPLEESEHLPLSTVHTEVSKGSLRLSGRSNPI
So basically, if EC50 comes in under 200 nM it's 1 (yes), and if it's 200 nM or more it's 0 (no).

INSERT INTO assay_data (compound, category) VALUES
  ('O=C1OCCN1c1cccc(-c2cnc(N[C@@H]3CCCC[C@H]3N[C@H]3CCCN(c4cnc(C(F)(F)F)nc4)C3)o2)c1', '1 (yes)'),
  ('C[C@]1(N[C@@H]2CCCC[C@H]2Nc2ncc(-c3ccc(OC(F)(F)F)cc3)o2)CCCN(c2ccc(O)cc2)C1', '1 (yes)'),
  ('CC(C)COC(=O)Nc1cccc(-c2cnc(N[C@@H]3CCCC[C@H]3N[C@H]3CCCN(c4cnc(C(F)(F)F)nc4)C3)o2)c1', '1 (yes)'),
  ('Cn1nnc(-c2ccc(N3CCC[C@H](N[C@@H]4CCCC[C@H]4Nc4ncc(-c5ccc(OC(F)(F)F)cc5)o4)C3)cc2)n1', '1 (yes)'),
  ('COC(=O)Nc1cccc(-c2ccnc(N[C@@H]3CCCC[C@H]3N[C@H]3CCCN(c4ccc(Br)cc4)C3)c2)c1', '1 (yes)'),
  ('Cn1nnc(-c2ccc(N3CCC[C@H](N[C@@H]4CCCC[C@H]4Nc4cc(-c5ccc(OC(F)F)cc5)ccn4)C3)cc2)n1', '1 (yes)'),
  ('NC(=O)c1cccc(-c2ccnc(N[C@@H]3CCCC[C@H]3N[C@H]3CCCN(c4cnc(C(F)(F)F)cn4)C3)c2)c1', '1 (yes)'),
  ('Cc1nnc(-c2ccc(N3CCC[C@H](N[C@@H]4CCCC[C@H]4Nc4cc(-c5ccc(OC(F)F)cc5)ccn4)C3)cc2)o1', '0 (no)');

*Q* For Cc1nnc(-c2ccc(N3CCCC(N[C@@H]4CCCC[C@H]4Nc4cc(-c5ccccc5F)ccn4)C3)cc2)o1 (some centres unmarked) , is the recorded EC50 below the cut-off of 200 nM?
*A* 1 (yes)
